assay.system: human SCF248 (stem cell factor 248 isoform) expressed on mouse SI/SI4 cells (human), P21583
Sequence (P21583 26-273): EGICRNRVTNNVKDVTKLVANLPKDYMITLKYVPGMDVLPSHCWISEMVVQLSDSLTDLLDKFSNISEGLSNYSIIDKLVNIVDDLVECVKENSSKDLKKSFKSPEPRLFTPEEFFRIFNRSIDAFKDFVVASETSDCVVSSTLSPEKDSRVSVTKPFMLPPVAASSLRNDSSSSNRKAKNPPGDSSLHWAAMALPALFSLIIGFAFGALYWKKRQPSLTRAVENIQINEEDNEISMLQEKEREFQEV
test.method.notes: cell-based or functional assay
outcome.measure: CCL2 Expression as Percentage of Positive Control (%)
Your answer should be a plain number; it is taken to be in %.

Observe how each entry below is paired with its result.
H74P mutant expressed as full length IgG4 antibody (antibody, V domains shown, Full length IgG4) VH: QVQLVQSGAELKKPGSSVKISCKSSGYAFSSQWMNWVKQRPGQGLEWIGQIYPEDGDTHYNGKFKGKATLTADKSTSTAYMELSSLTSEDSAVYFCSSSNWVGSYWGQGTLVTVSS VL: DVVMTQSPLSLPVTLGQPASISCKSSQSLLEEDGNTYLNWLQQRPGQSPRRLIYLVDRLDLGVPDRFSGSGSGTDFTLKISRVEAEDVGVYYCWQGSHLPQTFGGGTKVEIK    40.6
A64P mutant expressed as full length IgG4 antibody (antibody, V domains shown, Full length IgG4) VH: QVQLVQSGAELKKPGSSVKISCKSSGYAFSSNWMNWVKQRPGQGLEWIGQIYPEDGDTHYNGKFKGKATLTADKSTSTAYMELSSLTSEDSAVYFCSSSNWVGSYWGQGTLVTVSS VL: DVVMTQSPLSLPVTLGQPASISCKSSQSLLEEDGNTYLNWLQQRPGQSPRRLIYLVNRLDDGVPDRFSGSGSGTDFTLKISRVEAEDVGVYYCWQGTDLPQTFGGGTKVEIK    22.9

Exercise: What value of CCL2 Expression as Percentage of Positive Control has been recorded for this entry: B124P mutant expressed as full length IgG4 antibody (antibody, V domains shown, Full length IgG4) VH: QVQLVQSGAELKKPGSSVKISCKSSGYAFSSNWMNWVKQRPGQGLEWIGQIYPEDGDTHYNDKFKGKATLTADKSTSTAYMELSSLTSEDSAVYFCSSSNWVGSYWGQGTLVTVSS VL: DVVMTQSPLSLPVTLGQPASISCKSSQSLLEQDGNTYLNWLQQRPGQSPRRLIYLVDRLDSGVPDRFSGSGSGTDFTLKISRVEAEDVGVYYCWQGTDLPQTFGGGTKVEIK
Key: 55.9
